TARGET_UNDER_TEST: T1, full-length human Tau (Tau441; 2N4R), recombinant (human, UniProt P10636 1-758)
T1 construct: made in E. coli, His6-Smt3 tag removed; biotinylated through amines for Octet and phage work; also called r-Tau; recombinant Tau
TEST_PROTOCOL: SPR Biacore
Values of koff greater than or equal to 0.0002 s⁻¹ map to true; values below map to false.

* Clone with H1_4-2 (antibody, V domains shown, based on hu1C7.v2) VH: EVQLLESGGGLVQPGGSLRLSCAASGFQFSGPGMSWVRQAPGKGLEWVASISGDGGSYIHYADSVKGRFTISRDNSKNTLYLQMNSLRAEDTAVYYCARLPYWGQGTLVTVSS VL: DIVMTQSPDSLAVSLGERATINCKSSQSLLNSGNQKNYLTWYQQKPGQPPKLLIYWASTRESGVPDRFSGSGSGTDFTLTISSLQAEDVAVYYCQQYNSYPLTFGQGTKVEIKR | false
* Clone with H1_4-5 (antibody, V domains shown, based on hu1C7.v2) VH: EVQLLESGGGLVQPGGSLRLSCAASGFRFSGYGMSWVRQAPGKGLEWVASISGDGGSYIHYADSVKGRFTISRDNSKNTLYLQMNSLRAEDTAVYYCARLPYWGQGTLVTVSS VL: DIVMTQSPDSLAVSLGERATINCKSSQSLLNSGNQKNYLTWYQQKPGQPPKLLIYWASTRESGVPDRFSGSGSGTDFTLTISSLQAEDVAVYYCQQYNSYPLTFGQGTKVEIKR | false
* Clone with L1_3-6 (antibody, V domains shown, based on hu1C7.v2) VH: EVQLLESGGGLVQPGGSLRLSCAASGFTFSSYGMSWVRQAPGKGLEWVASISGDGGSYIHYADSVKGRFTISRDNSKNTLYLQMNSLRAEDTAVYYCARLPYWGQGTLVTVSS VL: DIVMTQSPDSLAVSLGERATINCKSSQSLHQSGTQKDYLVWYQQKPGQPPKLLIYWASTRESGVPDRFSGSGSGTDFTLTISSLQAEDVAVYYCQQYNSYPLTFGQGTKVEIK | true
* Clone with H1_2-5 (antibody, V domains shown, based on hu1C7.v2) VH: EVQLLESGGGLVQPGGSLRLSCAASGFTFSKVGTSWVRQAPGKGLEWVASISGDGGSYIHYADSVKGRFTISRDNSKNTLYLQMNSLRAEDTAVYYCARLPYWGQGTLVTVSS VL: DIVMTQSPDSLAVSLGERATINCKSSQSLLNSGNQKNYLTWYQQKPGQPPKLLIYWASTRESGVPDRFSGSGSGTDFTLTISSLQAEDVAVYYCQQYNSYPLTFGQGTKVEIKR | false
* Clone with H2_2 (antibody, V domains shown, based on hu1C7.v2) VH: EVQLLESGGGLVQPGGSLRLSCAASGFTFSSYGMSWVRQAPGKGLEWVASISGTGGSYIHYADSVKGRFTISRDNSKNTLYLQMNSLRAEDTAVYYCARLPYWGQGTLVTVSS VL: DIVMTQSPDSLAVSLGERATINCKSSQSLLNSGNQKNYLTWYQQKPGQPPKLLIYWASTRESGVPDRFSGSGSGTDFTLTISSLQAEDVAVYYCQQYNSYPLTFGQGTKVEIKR | true
* Clone with L1_3-9 (antibody, V domains shown, based on hu1C7.v2) VH: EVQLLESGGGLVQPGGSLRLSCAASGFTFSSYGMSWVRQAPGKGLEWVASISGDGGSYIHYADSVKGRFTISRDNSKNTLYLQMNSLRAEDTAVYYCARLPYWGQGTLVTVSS VL: DIVMTQSPDSLAVSLGERATINCKSSQSLHRSGNQKDYLVWYQQKPGQPPKLLIYWASTRESGVPDRFSGSGSGTDFTLTISSLQAEDVAVYYCQQYNSYPLTFGQGTKVEIK | false
* Clone with L1_3-10 (antibody, V domains shown, based on hu1C7.v2) VH: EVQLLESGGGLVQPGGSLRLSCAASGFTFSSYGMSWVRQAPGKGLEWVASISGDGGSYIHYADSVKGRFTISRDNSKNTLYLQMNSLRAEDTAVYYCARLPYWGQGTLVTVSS VL: DIVMTQSPDSLAVSLGERATINCKSSQSLHRSGTQKNYLVWYQQKPGQPPKLLIYWASTRESGVPDRFSGSGSGTDFTLTISSLQAEDVAVYYCQQYNSYPLTFGQGTKVEIK | false
